Target: T1, human TROP2 protein (Sino Biological, #10428-H08H) (human, UniProt P09758 27-274)
T1 construct: bought protein; also called human Trop2 protein antigen (His tag); not shown: His tag
T1 sequence (looked up): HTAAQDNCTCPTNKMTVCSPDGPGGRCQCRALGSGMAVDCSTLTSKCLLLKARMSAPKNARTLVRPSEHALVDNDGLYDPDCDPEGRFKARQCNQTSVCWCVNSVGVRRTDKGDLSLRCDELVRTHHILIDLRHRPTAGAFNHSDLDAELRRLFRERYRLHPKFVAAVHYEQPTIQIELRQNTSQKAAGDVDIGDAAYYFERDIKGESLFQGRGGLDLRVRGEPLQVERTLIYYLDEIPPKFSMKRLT
Test: BLI epitope binning (Octet), biotinylated human Trop2 on SA sensor; row = primary antibody; competitor (secondary antibody, column): PR001165
READOUT_NAME: Inhibition rate (%)
Write the answer as a number in %, unit excluded.

Guide cases for Inhibition rate (%), answers given:
>  <BINDER>
PR001165 (antibody, human IgG1, kappa, V domains shown, fully human IgG1/kappa; also called antibody No. (26)) VH: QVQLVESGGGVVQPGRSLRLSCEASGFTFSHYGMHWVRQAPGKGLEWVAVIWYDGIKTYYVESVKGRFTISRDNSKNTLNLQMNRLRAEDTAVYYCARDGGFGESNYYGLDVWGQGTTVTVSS VL: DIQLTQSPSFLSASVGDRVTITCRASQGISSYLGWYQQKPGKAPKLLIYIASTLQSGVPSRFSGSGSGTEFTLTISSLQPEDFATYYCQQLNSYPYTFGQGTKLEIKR

>  <UNIT_ABBREV>
%

>  <Inhibition rate (%)>
97.7

$$$$
>  <BINDER>
PR001142 (antibody, human IgG1, kappa, V domains shown, fully human IgG1/kappa; also called antibody No. (9)) VH: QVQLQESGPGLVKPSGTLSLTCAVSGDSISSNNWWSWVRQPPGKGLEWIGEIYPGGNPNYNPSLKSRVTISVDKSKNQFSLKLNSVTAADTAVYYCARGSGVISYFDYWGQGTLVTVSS VL: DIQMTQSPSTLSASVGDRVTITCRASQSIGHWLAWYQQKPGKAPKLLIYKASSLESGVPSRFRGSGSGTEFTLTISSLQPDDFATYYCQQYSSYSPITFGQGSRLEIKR

>  <UNIT_ABBREV>
%

>  <Inhibition rate (%)>
99.2

$$$$

Here is another binder to look at.
Data request, read-out Inhibition rate (%), for comparative example 2 antibody Tab (hRS7) (antibody, human IgG1, kappa, V domains shown, prepared on the basis of sacituzumab govitecan (ChemPartner, #T07-001); naked antibody) VH: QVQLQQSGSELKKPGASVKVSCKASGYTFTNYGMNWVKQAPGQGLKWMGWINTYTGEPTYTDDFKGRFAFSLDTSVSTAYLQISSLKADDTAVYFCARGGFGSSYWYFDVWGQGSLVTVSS VL: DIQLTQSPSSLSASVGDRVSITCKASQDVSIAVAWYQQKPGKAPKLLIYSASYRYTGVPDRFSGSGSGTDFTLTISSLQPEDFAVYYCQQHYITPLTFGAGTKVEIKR 92
